Origin of values: ChEMBL document CHEMBL5058577

System: Fibroblast
PROTOCOL TEXT: Multiplex assay against human fibroblast
Type: toxicity, cell-based
TEST CONTEXT: 12 h, 10 µM, compound concentration 10 uM, replicate 2
Entries annotated with measured Population Tubulin-Different-Phenotype (%)
# unit: % | format: bare number

COMPOUND: C=CCN1C[C@H](C(=O)N(CCCN(C)C)C(=O)NCC)C[C@@H]2c3cccc4[nH]cc(c34)C[C@H]21 [CABERGOLINE]
VALUE UNITS: %
ASSAY RESULT: 53

COMPOUND: CCn1c(-c2nc3cc(C(=O)N4CCCC(N)C4)ccc3n2C)cc2ccccc21.Cl (stereo not given)
VALUE UNITS: %
ASSAY RESULT: 80

COMPOUND: COCCn1c(C)c(C)s/c1=N\C(=O)C1C(C)(C)C1(C)C
VALUE UNITS: %
ASSAY RESULT: 64

COMPOUND: O=C(O)CCC/C=C\CC1C(O)CC(O)C1/C=C/C(O)COc1cccc(Cl)c1 (stereo not given) [CLOPROSTENOL]
VALUE UNITS: %
ASSAY RESULT: 53

[Q] Endpoint output: Population Tubulin-Different-Phenotype (%) of `COc1cc2nc(N3CCN(C(=O)COc4c(OC)cccc4C(C)C)CC3)nc(N)c2cc1OC.Cl.Cl` . Value?
[A] 56
